- PROTOCOL: soluble on expression in E. coli; label from the status in PepcDB or PDB records

- ENTRY_SEQUENCE: "MKLSTSLEMPFRESTDPICSVCNFSSLIAPHFGGLVCSACASFFRRTVALNIHYLCKKDNQCKGMRKNCRACRFESCVKIAGMKRSLVKERKNLNNIPLYILNRRNETGNQGVVRAFVSSNQNRLENRLSLSPLTELPINDEMDVSKILKTTPSSLLKYYVEQVSHGKQFYMNTLNIRTKEELFEIVSYQSKVAAETCRTCPGVDLLDNRDILILRKYFQFSNIWIESTWKYWFSNDFSNDTEKFDIKLMEFIGQVKSTLLISLSRLKFNIFEFTAFKAICIWKLVYHETSRAMKIVAQEHYEGVTKALISYYQTYTLLDSMEIAIRVGEITLLVSSVFQMYHDMAKLYLHMGLPF"
  soluble on expression in E. coli: "not soluble"
- ENTRY_SEQUENCE: "MLFQNVSIAGLAHVDAPHTLTSKEINGRLQPTYDRLGIKTDVLGDVAGIHARRLWDQDVQASDAATQAARKALIDAGIGIEKIGLLVNTSVSRDYLEPSTASIVSGNLGVGDHCVTFDVANACLAFINGMDIAARMLERGEIDYALVVDGETANLVYEKTLERMTSPDVTEEEFRNELAALTLGCGAAAMVMARTELVPDAPRYKGGVTRSATEWNKLCRGNLDRMVTDTRLLLIEGIKLAQKTFLAARQVLGWAVDELDQFVIHQVSRPHTAAFVKSFGIDPAKVMTIFGEHGNIGPASVPIVLSKLKELGRLKKGDRIALLGIGSGLNCSMAEVVW"
  soluble on expression in E. coli: "soluble"
- ENTRY_SEQUENCE: "MHHHHHHSSGVDLGTENLYFQSMGAASLDVIQEVEYVKEEAKMVYLLECLQKTPPPVLIFAEKKADVDAIHEYLLLKGVEAVAIHGGKDQEERTKAIEAFREGKKDVLVATDVASKGLDFPAIQHVINYDMPEEIENYVHRIGRTGCSGNTGIATTFINKACDESVLMDLKALLLEAKQKVPPVLQVLHCG"
  soluble on expression in E. coli: "soluble"
- ENTRY_SEQUENCE: "MGSDKIHHHHHHMTGLLSKHDFRVALQEAIAGKASAKAAFSQAWMDGTLQRHHFARWAENHYHYVGPFADYLGYIYNNARDEQDGVKDLLLQSMYEFRHLQEGEAMVSHTDLLIRFAQACGTTRERVESPQACNPITRGMQAWCYATAIRESPVVATAALLVGLASQIPQIYARQIVPLRDPRVYGFSEHEVAFFALRITSDGAHAERGYRIVLDGATTPALQQRCLQFVRWGAEMRYAYAQAIYDQYVAPDLGARRVD"
  soluble on expression in E. coli: "not soluble"
- ENTRY_SEQUENCE: "MSLSKLGYIPNQAARTLITNKTLTIGLIQKSSAPEIRQNPFNSDVLNGINQACNVRGYSTRMTVSENSGDLYHEVKTMIQSKSVDGFILLYSLKDDPIEHLLNEFKVPYLIVGKSLNYENIIHIDNDNIDAAYQLTQYLYHLGHRHILFLQESGHYAVTEDRSVGFKQYCDDVKISNDCVVIKSMNDLRDFIKQYCIDASHMPSVIITSDVMLNMQLLNVLYEYQLRIPEDIQTATFNTSFLTENATPSQTSVNINPDVLGFTAGNTIIDVLRNETISFREKLISTQIVERVSTTKIEGHHHHHH"
  soluble on expression in E. coli: "soluble"
- ENTRY_SEQUENCE: "MDLELEPTLESIVQHDSLKWIFVGGKGGVGKTTTSSSVAVQLALAQPNEQFLLISTDPAHNLSDAFCQKFGKDARKVEGLPNLSCMEIDPEAAMSDLQQQASQYNNDPNDPLKSMMSDMTGSIPGIDEALSFMEVLKHIKNQKVLEGEDNSNAISYKTIIFDTAPTGHTLRFLQLPSTLEKLLSKFKDLSGKLGPMLSMMGGGQQQDIFEKLNEVQKNVSEVNEQFTNPELTTFICVCISEFLSLYETERMIQELMSYNMDVNSIVVNQLLFAEGDDHSCKRCESRWKMQKKYLDQMGELYEDYHLVKMPLLGCEIRGVENLKKFSKFLLKPYDPKADSDIVFDLEEK"
  soluble on expression in E. coli: "soluble"
- ENTRY_SEQUENCE: "QAGFNDLFTINNTPAKTATEIYLENFPEQRNPLKSTGVNIVFKAPEGHTLAEPENKAAMDSVVQAIQDNLEGLTNTQRFGNPVELNPKLQQGVIDLMTQRGVPEENARADAANLSLITPDETIGYTTFDIDVPMPADVSDAQRQAITDAMNLGREKGLTVEAGGAGFGDPIVIEETSE"
  soluble on expression in E. coli: "not soluble"
- ENTRY_SEQUENCE: "MTGERIEKVKINDEFAKSHFLTTQWRETKRQRHYKMPVTEQGLRERIESAIPQVYHIIVTDLSYGCGQSFDIVVVSDFFQGKSKLMRSRAVNKAVKEELQEIHAFSCKCYTEEEWSKIVV"
  soluble on expression in E. coli: "soluble"
- ENTRY_SEQUENCE: "MGSDKIHHHHHHMDTKFSCVGCGGCCTDHHVPLTLLEARQWAADGGNVIVLTEAFLSNGYGVAQNQLTHATRRSTEVNSGSTTAFVAITFAAYNVGRCRNLDEENLCRIYERRPLVCRIYPMEINPHIPLRPETKGCPPESWEQGPDLIVGDTLVDTQLMSLIEQSRQADRDEIAAKQLICQQLGIRTTALKGNGFVAYLPDMNAFAAAIENVANLAGAAPENSDWEFHVAGQHVVDTLQQEGADVTDREPVSYLFIPLQAA"
  soluble on expression in E. coli: "not soluble"
- ENTRY_SEQUENCE: "MSLKVIATDMDGTLLDARGQLDLPRLEKILDQLDQRGIRFVIATGNEIHRMRQLLSPLVDRVVLVVANGARIFENNELIQAQTWDDAIVNKALTHFKGRACQDQFVVTGMKGDFVKEGTIFTDLESFMTPEMIEKFYQRMQFVDELTSDLFGGVLKMSMVVGEERLSSVLEEINALFDGRVRAVSSGYGCIDILQAGIHKAWGLEELLKRWDLKSQEIMAFGDSENDVEMLEMAGIAYAMENADEKAKAVATALAPANSQGGVYQVLENWLEKGEGHHHHHH"
  soluble on expression in E. coli: "soluble"
- ENTRY_SEQUENCE: "GATCLSQYCADKARDGVCDEACNSHACQWDGGDCSLTMENPWANCSSPLPCWDYINNQCDELCNTVECLFDNFECQGNSKTCKYDKYCADHFKDNHCNQGCNSEECGWDGLDCAADQPENLAEGTLVIVVLMPPEQLLQDARSFLRALGTLLHTNLRIKRDSQGELMVYPYYGEVAGSKVFLEIDNRQCVQDSDHCFKNTDAAAALLASHAIQGTLSYPLVSVVSESLTPERTQ"
  soluble on expression in E. coli: "soluble"

====

- PROTOCOL: soluble on expression in E. coli; label from the status in PepcDB or PDB records
PROPERTY_MEASURED: soluble on expression in E. coli

- ENTRY_SEQUENCE: "MRLKKLYLKGFKSFGRPSLIGFSDRVTAIVGPNGSGKSNIIDAIKWVFGEQSKKELRASEKFDMIFAGSENLPPAGSAYVELVFEENGEEITVARELKRTGENTYYLNGSPVRLKDIRDRFAGTGLGVDFYSIVGQGQIDRIVNASPEELRLESSKHPTSLVPRGSYQRVNESFNRFISLLFFGGEGRLNIVSEAKSILDAGFEISIRKPGRRDQKLSLLSGGEKALVGLALLFALMEIKPSPFYVLDEVDSPLDDYNAERFKRLLKENSKHTQFIVITHNKIVMEAADLLHGVTMVNGVSAIVPVEVEKILEVGSHHHHHH"
  RECORDED_MEASUREMENT: "soluble"
- ENTRY_SEQUENCE: "MGSDKIHHHHHHMKQVDYIIVGQGLAGSCLVQSLWHEKQSVVVIASSERKASSTVAAGLYNPITGKKMLLTWNAAVLFPYLDLFYRSAERELDTTILYPKAIVRPFTDIQAQNDFWAKSTPEIAAFAEPEQNIEKYDPYIWFPYGGLITKHSGYVDVQAFLGAIKQKLVEKDQYIEETFDHAALQFSTNSVAYKGIQAKKIIFAEGFHNTRNPIFNWVPVKGMKGDVLTLDIEAYALKEVVNKHFFIIPLPNGKFRMGSSYIREFEDDAPTEGGLKEITEGAHTILKKPFVVIEQKAGIRPVVPDHRPIIGEHPEQPLALIFNGLGTKGVSIAPYASKTLTNFLLLNQEIDQSMSVNRFNYLYFKQKNN"
  RECORDED_MEASUREMENT: "not soluble"
- ENTRY_SEQUENCE: "PLAIVTSPEIKSPGDLKGKRLMLSEVNIDSANFTHMLQGFGLSMKDIQILSTSFNIHDFIDGKVDAYSIFLTNELFDLQRLGVRYNILDPSNYGVELYDENLFGAKEFVLKNPTLVKRFIDASNRGWQYALDHPEEIVDLILERYNTQ"
  RECORDED_MEASUREMENT: "not soluble"
- ENTRY_SEQUENCE: "MVEATAQETDRPRFSFSIAAREGKARTGTIEMKRGVIRTPAFMPVGTAATVKALKPETVRATGADIILGNTYHLMLRPGAERIAKLGGLHSFMGWDRPILTDSGGFQVMSLSSLTKQSEEGVTFKSHLDGSRHMLSPERSIEIQHLLGSDIVMAFDECTPYPATPSRAASSMERSMRWAKRSRDAFDSRKEQAENAALFGIQQGSVFENLRQQSADALAEIGFDGYAVGGLAGGEGQDEMFRVLDFSVPMLPDDKPHYLMGVGKPDDIVGAVERGIDMFDCVLPTRSGRNGQAFTWDGPINIRNARFSEDLKPLDSECHCAVCQKWSRAYIHHLIRAGEILGAMLMTEHNIAFYQQLMQKIRDSISEGRFSQFAQDFRARYFARNS"
  RECORDED_MEASUREMENT: "soluble"
- ENTRY_SEQUENCE: "MSKSDLRMKSNADKVIANLKKMTPIAEKEGAAMVNDSLAKIYQLIVPMTPIKSGDLRRGYRIIKARKLSSGRIVGALINNEKYFRYVNDGHRTKNGGFVKGRFMLQKSNKLANATYIPKRFKQMAIIIVKKG"
  RECORDED_MEASUREMENT: "not soluble"
- ENTRY_SEQUENCE: "MGSDKIHHHHHHMNFLDGHLFPENQQPLIITAAPYAPGWLPSDFPEDIPVTMEEQIQKAVDCYNAGATVLHLHVRELDGKGSKRLSKFNELVAGVRKAVPEMIIQVGGSISFAPENEGQAAKWLSDDTRHMLADLEPTPDQVTVTVNTSQMNVTDHAEDADFRGTSRENPAIFNAYKEMTVPAQPGWVEEHVRRLTAKGIQSAFQCYNTNSFESVERLMRRGFYKGPLVMNWVAIGGGMDTPNVYSLGNFMRGVPDGAVVTVESNVRNVLPVNMMGIAMGLHVRCGTEDVLWNQKRTAKMSTVKQIEQLVRISHEFGREIATAKEAREISKIGVFYDTVEESLQANGFAPNRNGGTQGYLRKTR"
  RECORDED_MEASUREMENT: "not soluble"
- ENTRY_SEQUENCE: "MDMTDQAFFKYVRNFNEYQKRSMFGGIGLFSDDAMFALVSNDCCYLRGGNGLDEEFTLLNCEKYKHVKKQTTATVNYYDVTDLFESGFTGLDDLLRKSIDCSIKERKYQKSSASKRLRDLPNMQLTLERMVKKAGIDDVETFLELGPVEVFNKVRVAYGNDVDVKLLWKFAGAIDGVHWKLIQEPRKKQLLALCE"
  RECORDED_MEASUREMENT: "not soluble"
- ENTRY_SEQUENCE: "MIRNPKIYIIILNYNAYEDTLECVKSIGNIDYDNYELVLVDNSSTDDSYVKLKESLPSYNIIKSKENLGYANGNNIGIKYALENGADYICILNNDVVVEKDFLNKLVDKIIEKEDVGIVGSCICDYYRREIIQGMGAHINLYFAAARRYFKGKNYNEIEKKDIFVDYLEGACFLVKSEVFEKIGLIPENYFLFFEETEFCTRAINAGYKIMCIYESKVYHKGSATINKFGSLSYAYLNRNRVIFVRRNSKWYQKIIFAIYIFIEAFGRIVIRKEPLTLFKYILGGFKSNKESIDVIDVKSYVKLEHHHHHH"
  RECORDED_MEASUREMENT: "not soluble"
- ENTRY_SEQUENCE: "TAGFYINSEISDYFWIKTEFNYVNRGYTHKEAGKTLKTNYYCIDVYPVTPAFHYKGAQIFAGPSVTLLVASNRDTLIGGEVKKIADNKLDGINRYDIGIMAGVEYEFNFGLNIGVRMVRGFTSLYEPVNSIQTQWFNQTYLFTLGYSI"
  RECORDED_MEASUREMENT: "not soluble"
- ENTRY_SEQUENCE: "MGSDKIHHHHHHMHIAIMSRNKNLYSTSRLKEAAEARGHVIKIVDPLKCYMNINMNAPSIHVRGEELPKFDAVIPRIGASVTFYGTAVLRQFEMMGTHPLNESVAITRSRDKLRSLQLLSRKNIGLPVTGFASKPADIPDLLDMVGGAPCVIKLLEGTQGIGVVLAETRKAAESVIEAFMGLKANIMVQEYIAEAGGADIRCFVIGDKVIAAMKRQALPGEFRSNLHRGGSASIVKLTPEERSTALRAAKTMGLNVAGVDILRSKHGPLVMEVNSSPGLEGIEKATGIDVAEKIIQFIEKNVKSTSSKTKGVG"
  RECORDED_MEASUREMENT: "not soluble"
- ENTRY_SEQUENCE: "MSLDQEQNVSLLVAGDHELLRDAISEILRREGGFSVEVTGSREGVLKQIEERGGFDVILLDLQMPGMSGLDSLREVATSNANGAVAILAGELTRDVVMSAFKAGARGYIPKTLPLRALPIALRLIASGESYVPAWLTNGGGTTQADGPSFDLLPEELQILEEVSDGRTNKQIAFTLNVTEGAIKMKMRAICMKLGAKNRTHAVVIARQHMMLREGHHHHHH"
  RECORDED_MEASUREMENT: "soluble"
